Test system: HepG2
PROTOCOL NOTES: Cytotoxicity against human HepG2 cells at 2 to 10 uM after 48 hrs by MTT assay
Type: functional, cell-based
CONDITION SET: HepG2, 48 h
pIC50: −log10 of the molar value.
REPORTED ENDPOINT: pIC50

> print(dat)
                           molecular.string  readout.number
1  C=C[C@]1(C)CC[C@@H](C(=C)Cn2cc(CN3C(=O)c4cccc5c(N6CCNCC6)ccc(c45)C3=O)nn2)C[C@H]1C(=C)C            5.21

* * *

PROTOCOL NOTES: Drug uptake in human HeLa cells at 10 uM after 15 mins by confocal scanning microscopic analysis
Assay type: ADME, cell-based
CONDITION SET: 0.25 h

MOLECULAR STRING	Drug uptake
C=C[C@]1(C)CC[C@@H](C(=C)Cn2cc(CN3C(=O)c4cccc5c(N6CCN(C(=O)OCCSSCCOCC(=O)NC(COCc7cn([C@@H]8O[C@H](CO)[C@H](O)[C@H](O)[C@H]8O)nn7)(COCc7cn([C@@H]8O[C@H](CO)[C@H](O)[C@H](O)[C@H]8O)nn7)COCc7cn([C@@H]8O[C@H](CO)[C@H](O)[C@H](O)[C@H]8O)nn7)CC6)ccc(c45)C3=O)nn2)C[C@H]1C(=C)C	Active
C=C[C@]1(C)CC[C@@H](C(=C)Cn2cc(CN3C(=O)c4cccc5c(N6CCN(C(=O)OCCSSCCOCC(=O)NC(COCc7cn([C@@H]8O[C@H](CO)[C@H](O)[C@H](O)[C@H]8O)nn7)COCc7cn([C@@H]8O[C@H](CO)[C@H](O)[C@H](O)[C@H]8O)nn7)CC6)ccc(c45)C3=O)nn2)C[C@H]1C(=C)C	Active
C=C[C@]1(C)CC[C@@H](C(=C)Cn2cc(CN3C(=O)c4cccc5c(N6CCN(C(=O)OCCSSCCOCc7cn([C@@H]8O[C@H](CO)[C@H](O)[C@H](O)[C@H]8O)nn7)CC6)ccc(c45)C3=O)nn2)C[C@H]1C(=C)C	Active

* * *

PROTOCOL NOTES: Drug uptake in human SGC-7901 cells at 10 uM after 15 mins by confocal scanning microscopic analysis
Assay type: ADME, cell-based
CONDITION SET: sgc-7901, 0.25 h
REPORTED ENDPOINT: Drug uptake

MOLECULAR STRING	REPORTED ENDPOINT	RESULT
C=C[C@]1(C)CC[C@@H](C(=C)Cn2cc(CN3C(=O)c4cccc5c(N6CCN(C(=O)OCCSSCCOCC(=O)NC(COCc7cn([C@@H]8O[C@H](CO)[C@H](O)[C@H](O)[C@H]8O)nn7)(COCc7cn([C@@H]8O[C@H](CO)[C@H](O)[C@H](O)[C@H]8O)nn7)COCc7cn([C@@H]8O[C@H](CO)[C@H](O)[C@H](O)[C@H]8O)nn7)CC6)ccc(c45)C3=O)nn2)C[C@H]1C(=C)C	Drug uptake	Active
C=C[C@]1(C)CC[C@@H](C(=C)Cn2cc(CN3C(=O)c4cccc5c(N6CCN(C(=O)OCCSSCCOCc7cn([C@@H]8O[C@H](CO)[C@H](O)[C@H](O)[C@H]8O)nn7)CC6)ccc(c45)C3=O)nn2)C[C@H]1C(=C)C	Drug uptake	Active
C=C[C@]1(C)CC[C@@H](C(=C)Cn2cc(CN3C(=O)c4cccc5c(N6CCN(C(=O)OCCSSCCOCC(=O)NC(COCc7cn([C@@H]8O[C@H](CO)[C@H](O)[C@H](O)[C@H]8O)nn7)COCc7cn([C@@H]8O[C@H](CO)[C@H](O)[C@H](O)[C@H]8O)nn7)CC6)ccc(c45)C3=O)nn2)C[C@H]1C(=C)C	Drug uptake	Active

* * *

PROTOCOL NOTES: Drug uptake in human HepG2 cells at 10 uM after 15 mins by confocal scanning microscopic analysis
Format: ADME, cell-based
CONDITION SET: hepg2, 0.25 h

MOLECULAR STRING	Drug uptake
C=C[C@]1(C)CC[C@@H](C(=C)Cn2cc(CN3C(=O)c4cccc5c(N6CCN(C(=O)OCCSSCCOCC(=O)NC(COCc7cn([C@@H]8O[C@H](CO)[C@H](O)[C@H](O)[C@H]8O)nn7)COCc7cn([C@@H]8O[C@H](CO)[C@H](O)[C@H](O)[C@H]8O)nn7)CC6)ccc(c45)C3=O)nn2)C[C@H]1C(=C)C	Active
C=C[C@]1(C)CC[C@@H](C(=C)Cn2cc(CN3C(=O)c4cccc5c(N6CCN(C(=O)OCCSSCCOCC(=O)NC(COCc7cn([C@@H]8O[C@H](CO)[C@H](O)[C@H](O)[C@H]8O)nn7)(COCc7cn([C@@H]8O[C@H](CO)[C@H](O)[C@H](O)[C@H]8O)nn7)COCc7cn([C@@H]8O[C@H](CO)[C@H](O)[C@H](O)[C@H]8O)nn7)CC6)ccc(c45)C3=O)nn2)C[C@H]1C(=C)C	Active
C=C[C@]1(C)CC[C@@H](C(=C)Cn2cc(CN3C(=O)c4cccc5c(N6CCN(C(=O)OCCSSCCOCc7cn([C@@H]8O[C@H](CO)[C@H](O)[C@H](O)[C@H]8O)nn7)CC6)ccc(c45)C3=O)nn2)C[C@H]1C(=C)C	Active

* * *

PROTOCOL NOTES: Drug uptake in human A549 cells at 10 uM after 15 mins by confocal scanning microscopic analysis
Format: ADME, cell-based
CONDITION SET: a549, 0.25 h

MOLECULAR STRING	Drug uptake
C=C[C@]1(C)CC[C@@H](C(=C)Cn2cc(CN3C(=O)c4cccc5c(N6CCN(C(=O)OCCSSCCOCC(=O)NC(COCc7cn([C@@H]8O[C@H](CO)[C@H](O)[C@H](O)[C@H]8O)nn7)COCc7cn([C@@H]8O[C@H](CO)[C@H](O)[C@H](O)[C@H]8O)nn7)CC6)ccc(c45)C3=O)nn2)C[C@H]1C(=C)C	Active
C=C[C@]1(C)CC[C@@H](C(=C)Cn2cc(CN3C(=O)c4cccc5c(N6CCN(C(=O)OCCSSCCOCC(=O)NC(COCc7cn([C@@H]8O[C@H](CO)[C@H](O)[C@H](O)[C@H]8O)nn7)(COCc7cn([C@@H]8O[C@H](CO)[C@H](O)[C@H](O)[C@H]8O)nn7)COCc7cn([C@@H]8O[C@H](CO)[C@H](O)[C@H](O)[C@H]8O)nn7)CC6)ccc(c45)C3=O)nn2)C[C@H]1C(=C)C	Active
C=C[C@]1(C)CC[C@@H](C(=C)Cn2cc(CN3C(=O)c4cccc5c(N6CCN(C(=O)OCCSSCCOCc7cn([C@@H]8O[C@H](CO)[C@H](O)[C@H](O)[C@H]8O)nn7)CC6)ccc(c45)C3=O)nn2)C[C@H]1C(=C)C	Active
